Hello, the source for this data is PubChem BioAssay AID2060912, in case you need it.

Tested on: HUVEC/MSC spheroids viability
Experiment: Human HUVEC/MSC cell line growth inhibition [KRAS2];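 also: percent of DMSO vehicle control luminescence so 100% = untreated viability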
Conditions: second compound 0.316 µM; first compound 0.316 µM; hits give low values
experimentalReadout: viability, T/C (%)
# value in %; strip the unit string

The value of viability, T/C measured for the compound CC(C)NCC(C(=O)N1CCN(c2ncnc3c2C(C)CC3O)CC1)c1ccc(Cl)cc1 (stereo not given) + COc1cc2nc(C)nc(NC(C)c3cc(N)cc(C(F)(F)F)c3)c2cc1OC1CCOC1 turned out to be 81.2

The value of viability, T/C measured for the compound CC1OCC2(CCN(c3cnc(Sc4ccnc(N)c4Cl)c(N)n3)CC2)C1N (stereo not given) + CNCc1ccccc1-c1csc(C(C)Nc2nc(C)nc3cc(OC)c(OC)cc23)c1 turned out to be 78.2

The value of viability, T/C measured for the compound COC(=O)c1ccc2c(C(=Nc3ccc(N(C)C(=O)CN4CCN(C)CC4)cc3)c3ccccc3)c(O)[nH]c2c1 + C=CC(=O)N1CCN(c2nc(=O)n(-c3c(C)ccnc3C(C)C)c3nc(-c4c(O)cccc4F)c(F)cc23)C(C)C1 turned out to be 96.2

The value of viability, T/C measured for the compound COc1cc(Nc2ncc3c(n2)-c2ccc(Cl)cc2C(c2c(F)cccc2OC)=NC3)ccc1C(=O)O + COc1cc2nc(C)nc(NC(C)c3cc(N)cc(C(F)(F)F)c3)c2cc1OC1CCOC1 turned out to be 92.5

The value of viability, T/C measured for the compound COc1cc(Nc2ncc3c(n2)-c2ccc(Cl)cc2C(c2c(F)cccc2OC)=NC3)ccc1C(=O)O + CC1OCC2(CCN(c3cnc(Sc4ccnc(N)c4Cl)c(N)n3)CC2)C1N turned out to be 106

The value of viability, T/C measured for the compound CC(C)NCC(C(=O)N1CCN(c2ncnc3c2C(C)CC3O)CC1)c1ccc(Cl)cc1 (stereo not given) + CC1OCC2(CCN(c3cnc(Sc4ccnc(N)c4Cl)c(N)n3)CC2)C1N turned out to be 98.1

The value of viability, T/C measured for the compound COc1cc(Nc2ncc3c(n2)-c2ccc(Cl)cc2C(c2c(F)cccc2OC)=NC3)ccc1C(=O)O + C=CC(=O)N1CCN(c2nc(=O)n(-c3c(C)ccnc3C(C)C)c3nc(-c4c(O)cccc4F)c(F)cc23)C(C)C1 turned out to be 93.8

The value of viability, T/C measured for the compound O=C(c1cc(Cc2n[nH]c(=O)c3ccccc23)ccc1F)N1CCN(C(=O)C2CC2)CC1 + CC1OCC2(CCN(c3cnc(Sc4ccnc(N)c4Cl)c(N)n3)CC2)C1N turned out to be 99

The value of viability, T/C measured for the compound Cn1nccc1Nc1nccc(-c2cc3c(s2)C(C)(C)N(CCN2CCOCC2)C3=O)n1 + COc1cc2nc(C)nc(NC(C)c3cc(N)cc(C(F)(F)F)c3)c2cc1OC1CCOC1 turned out to be 107

The value of viability, T/C measured for the compound CC1(C)CCC(CN2CCN(c3ccc(C(=O)NS(=O)(=O)c4ccc(NCC5CCOCC5)c([N+](=O)[O-])c4)c(Oc4cnc5[nH]ccc5c4)c3)CC2)=C(c2ccc(Cl)cc2)C1 + C=CC(=O)N1CCN(c2nc(=O)n(-c3c(C)ccnc3C(C)C)c3nc(-c4c(O)cccc4F)c(F)cc23)C(C)C1 turned out to be 97.2

The value of viability, T/C measured for the compound CCN1CCN(Cc2ccc(Nc3ncc(F)c(-c4cc(F)c5nc(C)n(C(C)C)c5c4)n3)nc2)CC1 + CC1OCC2(CCN(c3cnc(Sc4ccnc(N)c4Cl)c(N)n3)CC2)C1N turned out to be 117

The value of viability, T/C measured for the compound CC(C)NCC(C(=O)N1CCN(c2ncnc3c2C(C)CC3O)CC1)c1ccc(Cl)cc1 (stereo not given) + C=CC(=O)N1CCN(c2nc(=O)n(-c3c(C)ccnc3C(C)C)c3nc(-c4c(O)cccc4F)c(F)cc23)C(C)C1 turned out to be 82.2

The value of viability, T/C measured for the compound CCNC(=O)CC1N=C(c2ccc(Cl)cc2)c2cc(OC)ccc2-n2c(C)nnc21 (stereo not given) + CNCc1ccccc1-c1csc(C(C)Nc2nc(C)nc3cc(OC)c(OC)cc23)c1 turned out to be 91.3

The value of viability, T/C measured for the compound CCN1CCN(Cc2ccc(Nc3ncc(F)c(-c4cc(F)c5nc(C)n(C(C)C)c5c4)n3)nc2)CC1 + C=CC(=O)N1CCN(c2nc(=O)n(-c3c(C)ccnc3C(C)C)c3nc(-c4c(O)cccc4F)c(F)cc23)C(C)C1 turned out to be 112

The value of viability, T/C measured for the compound Cn1nccc1Nc1nccc(-c2cc3c(s2)C(C)(C)N(CCN2CCOCC2)C3=O)n1 + CC1OCC2(CCN(c3cnc(Sc4ccnc(N)c4Cl)c(N)n3)CC2)C1N turned out to be 105

The value of viability, T/C measured for the compound CC1(C)CCC(CN2CCN(c3ccc(C(=O)NS(=O)(=O)c4ccc(NCC5CCOCC5)c([N+](=O)[O-])c4)c(Oc4cnc5[nH]ccc5c4)c3)CC2)=C(c2ccc(Cl)cc2)C1 + CNCc1ccccc1-c1csc(C(C)Nc2nc(C)nc3cc(OC)c(OC)cc23)c1 turned out to be 97.8

The value of viability, T/C measured for the compound CCN1CCN(Cc2ccc(Nc3ncc(F)c(-c4cc(F)c5nc(C)n(C(C)C)c5c4)n3)nc2)CC1 + CNCc1ccccc1-c1csc(C(C)Nc2nc(C)nc3cc(OC)c(OC)cc23)c1 turned out to be 102

The value of viability, T/C measured for the compound O=C(c1cc(Cc2n[nH]c(=O)c3ccccc23)ccc1F)N1CCN(C(=O)C2CC2)CC1 + C=CC(=O)N1CCN(c2nc(=O)n(-c3c(C)ccnc3C(C)C)c3nc(-c4c(O)cccc4F)c(F)cc23)C(C)C1 turned out to be 98.2

The value of viability, T/C measured for the compound CCN1CCN(Cc2ccc(Nc3ncc(F)c(-c4cc(F)c5nc(C)n(C(C)C)c5c4)n3)nc2)CC1 + COc1cc2nc(C)nc(NC(C)c3cc(N)cc(C(F)(F)F)c3)c2cc1OC1CCOC1 turned out to be 96.1

The value of viability, T/C measured for the compound CCNC(=O)CC1N=C(c2ccc(Cl)cc2)c2cc(OC)ccc2-n2c(C)nnc21 (stereo not given) + COc1cc2nc(C)nc(NC(C)c3cc(N)cc(C(F)(F)F)c3)c2cc1OC1CCOC1 turned out to be 105
